B1: Transitional endoplasmic reticulum ATPase, residues 26 to 106; numbered along this chain, P55072 (parent)
chain: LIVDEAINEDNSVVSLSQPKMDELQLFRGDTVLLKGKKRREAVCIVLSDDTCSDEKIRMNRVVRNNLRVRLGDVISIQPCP

Variants of: B1
Assay: abundance fitness (aPCA) (normalised: wild type 0, dead -1); higher = more abundant; growth selection in yeast, the domain comes from the species named
Conditions: Homo sapiens
Would you mind telling me the reported abundance fitness of each entry?
# answer = number (no unit)

Let me know recorded abundance fitness for I2F , thanks. -0.103

Let me know recorded abundance fitness for Q18S , thanks. -0.052

Let me know recorded abundance fitness for S48I , thanks. 0.031

Let me know recorded abundance fitness for G29P , thanks. -1.06

Let me know recorded abundance fitness for N8V , thanks. -0.096

Let me know recorded abundance fitness for D54T , thanks. 0.218

Let me know recorded abundance fitness for F27G , thanks. 0.016

Let me know recorded abundance fitness for L26F , thanks. -0.285

Let me know recorded abundance fitness for L33H , thanks. -0.031

Let me know recorded abundance fitness for G29D , thanks. -0.172

Let me know recorded abundance fitness for C80Y , thanks. -0.109

Let me know recorded abundance fitness for L71S , thanks. -0.004

Let me know recorded abundance fitness for K38G , thanks. 0.025

Let me know recorded abundance fitness for L34T , thanks. -0.558

Let me know recorded abundance fitness for S48K , thanks. -0.004

Let me know recorded abundance fitness for N11S , thanks. 0.039

Let me know recorded abundance fitness for N65F , thanks. -0.116

Let me know recorded abundance fitness for L1K , thanks. -0.292

Let me know recorded abundance fitness for E41L , thanks. -0.296

Let me know recorded abundance fitness for T31V , thanks. -0.104

Let me know recorded abundance fitness for G72N , thanks. -0.043

Let me know recorded abundance fitness for N66S , thanks. -0.044

Let me know recorded abundance fitness for K56R , thanks. -0.012

Let me know recorded abundance fitness for T51Q , thanks. -0.183

Let me know recorded abundance fitness for N8S , thanks. -0.036

Let me know recorded abundance fitness for E41Y , thanks. -0.14

Let me know recorded abundance fitness for E41K , thanks. 0.045

Let me know recorded abundance fitness for V46D , thanks. -0.804

Let me know recorded abundance fitness for L33P , thanks. -0.955

Let me know recorded abundance fitness for Q18N , thanks. -0.461

Let me know recorded abundance fitness for K37N , thanks. -0.143

Let me know recorded abundance fitness for R61L , thanks. -0.006

Let me know recorded abundance fitness for I57L , thanks. -0.224

Let me know recorded abundance fitness for D50Q , thanks. -0.277

Let me know recorded abundance fitness for D4S , thanks. -0.018

Let me know recorded abundance fitness for C80K , thanks. -0.505

Let me know recorded abundance fitness for C44T , thanks. -0.066

Let me know recorded abundance fitness for D73K , thanks. -0.309

Let me know recorded abundance fitness for I7T , thanks. -0.099

Let me know recorded abundance fitness for I57S , thanks. -0.861

Let me know recorded abundance fitness for N60L , thanks. -0.756

Let me know recorded abundance fitness for K37R , thanks. 0.028

Let me know recorded abundance fitness for C52P , thanks. -0.624

Let me know recorded abundance fitness for L47E , thanks. 0.055

Let me know recorded abundance fitness for D50Y , thanks. -0.246

Let me know recorded abundance fitness for C44A , thanks. -0.017
